- tested-system: Melanin-concentrating hormone receptor 1 (Homo sapiens)
- Sequence (Q99705 whole entry): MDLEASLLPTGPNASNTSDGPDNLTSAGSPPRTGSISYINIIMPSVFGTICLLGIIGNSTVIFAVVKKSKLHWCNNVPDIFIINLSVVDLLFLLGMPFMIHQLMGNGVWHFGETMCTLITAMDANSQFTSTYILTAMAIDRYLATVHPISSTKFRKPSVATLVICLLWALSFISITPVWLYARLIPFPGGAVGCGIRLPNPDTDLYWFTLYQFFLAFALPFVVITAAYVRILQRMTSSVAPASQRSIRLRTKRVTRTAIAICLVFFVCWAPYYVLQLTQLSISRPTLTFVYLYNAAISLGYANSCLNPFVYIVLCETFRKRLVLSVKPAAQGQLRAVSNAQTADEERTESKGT
- protocol-details: Antagonist activity at MCH1 receptor
readout: Ki (nM)

{"compound": "C[N+]1(CCN(C(=O)Nc2ccc(F)c(Cl)c2)C2CC[C@]3(c4cccc(C#N)c4)CC3C2)CCCCC1 (some centres undefined)", "result-unit": "nM", "Ki": 15}

1: N#Cc1cccc([C@]23CCC(N(CCN4CC[C@@H](O)C4)C(=O)Nc4cc(F)cc(F)c4)CC2C3)c1 (some centres undefined)
2: N#Cc1cccc([C@]23CCC(N(CCN4CC[C@@H](O)C4)C(=O)Nc4ccccc4)CC2C3)c1 (some centres undefined)
3: N#Cc1cccc([C@]23CCC(N(CCN4CC[C@@H](O)C4)C(=O)Nc4ccc(F)cc4)CC2C3)c1 (some centres undefined)
Input line: Hey, quick one: sort these by Ki, largest value first please. Show the ranking through the labels, in the order asked for.
Output line: 2, 3, 1
